Biological target: T1, RsmE (Pseudomonas fluorescens CHA0, UniProt P0DPC3 1-64)
T1 sequence: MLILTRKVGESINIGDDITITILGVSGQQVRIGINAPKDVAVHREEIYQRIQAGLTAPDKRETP
Assay: ITC; second RNA on dimer, two-site fit; ITC: 300 mM NaCl, 50 mM potassium phosphate pH 8.0, 298 K; NMR: 30 mM NaCl, 50 mM potassium phosphate pH 7.2, 313 K
Conditions: protein: recombinant; tags: C-terminal His tag; chain copies: 2; hairpin
Observed Property: pKd
// pKd is dimensionless: -log10 of concentration (M)

input: Returns the measured pKd for the input binder. Input: GGGCCAUCAAGGACGAUGGUCC (structured_RNA) [RsmZ SL2]
output: 6.73
